# MEASUREMENT TARGET: T1, human MAdCAM (human, UniProt Q13477 19-317, limits assumed)
# T1 construct: also called huMAdCAM; human MAdCAM-1
# T1 sequence (looked up): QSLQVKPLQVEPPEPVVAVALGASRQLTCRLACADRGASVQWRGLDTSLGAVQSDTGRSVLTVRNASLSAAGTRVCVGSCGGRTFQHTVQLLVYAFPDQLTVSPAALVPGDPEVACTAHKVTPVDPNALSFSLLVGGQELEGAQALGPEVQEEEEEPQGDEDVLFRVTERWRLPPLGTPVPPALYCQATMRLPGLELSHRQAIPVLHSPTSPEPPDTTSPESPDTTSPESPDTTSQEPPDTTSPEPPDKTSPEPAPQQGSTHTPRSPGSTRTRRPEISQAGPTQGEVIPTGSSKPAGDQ
# TEST METHOD NOTES: BLI (Octet), binder on anti-human Fc tips
METRIC NAME: Kd (µM)
One number for each entry, in µM.

Dear colleague, could you please provide Kd for the binders listed below?
1. MIAB184 (antibody, V domains shown, tested with human Fc; also called MIAB184-001) VH: EVQLLESGGGLVQPGGSLRLSCAASGFTFSSYWMHWVRQAPGKGLEWVSAISGSGGSTYYADSVKGRFTISRDNSKNTLYLQMNSLRAEDTAVYYCARDRPYYYYMDVWGKGTTVTVSS VL: DIQMTQSPSSLSASVGDRVTITCRASQSISSSLAWYQQKPGKAPKLLIYAASSLQSGVPSRFSGSGSGTDFTLTISSLQPEDFATYYCQQYKSYPVTFGQGTKVEIK
2. MIAB2 (antibody, V domains shown, tested with human Fc) VH: EVQLLESGGGLVQPGGSLRLSCAASGFTFDDYAMHWVRQAPGKGLEWVASITSSSAFIDYADSVKGRFTISRDNSKNTLYLQMNSLRAEDTAVYYCARERVDWNSYFDLWGQGTLVTVSS VL: EIVMTQSPATLSVSPGERATLSCRASQGISNSYLAWYQQKPGQAPRLLIYGASTRATGIPARFSGSGSGTEFTLTISSLQSEDFAVYYCQQYYTYPPTFGQGTKVEIK
3. MIAB207 (antibody, V domains shown, tested with human Fc) VH: EVQLLESGGGLVQPGGSLRLSCAASGFTFDDYAMHWVRQAPGKGLEWVASITSSSAFIDYADSVKGRFTISRDNSKNTLYLQMNSLRAEDTAVYYCARERVDWNSYFDLWGQGTLVTVSS VL: EIVMTQSPATLSVSPGERATLSCRASQSVYSNLVWYQQKPGQAPRLLIYRASTRATGIPARFSGSGSGTEFTLTISSLQSEDFAVYYCQQYHIWPPTFGQGTKVEIK

Response:
[0.563, 0.0232, 0.0835]
